Source: PubChem BioAssay (NCI)

tested on: COLO 205 colon; test: NCI-60 one-dose screen, 48 h (100 = growth as untreated, 0 = no growth, -100 = all killed); conditions: 10 µM unless noted
This is part of a sample that, as a whole, favours compounds with a hit. Of some 83,000 tested, about 20% had one in any assay.
growth values, listed per item

molecule | growth, %
O=C(NCCO)C(F)(F)F | 110
COc1cc(N2C(=O)C=CC2=O)ccc1N1C(=O)C=CC1=O | 53
Cn1c2ccccc2c2ccccc21 | 104
COC(=O)/C=C1/CCCCC1(C)C(=O)OC (configuration not stated) | 120
N#Cc1ccc(OCc2nc(N)nc(N)c2-c2ccc(Cl)c(Cl)c2)cc1 | 45.5
O=C(O)COc1ccc([N+](=O)[O-])cc1Cl | 110
CCOc1ccccc1/C=N\N=C(N/N=C/c1ccccc1OCC)N/N=C/c1ccccc1OCC | -38.9
COc1cc(OC)c(/C=C/c2ccc3ccccc3[n+]2C)c(OC)c1 | -51.5
C[C@@H](c1ccc2c(c1)[nH]c1ccc(Cl)cc12)c1nc2ccc(Cl)cc2[nH]1 | 116
CC(O)CN(CCO)CCN(CCO)CC(C)O (configuration not stated) | 115
CC1(C)C(O)NC(Cl)=C(C#N)C1(C#N)C#N (configuration not stated) | 118
N/C(=N\O)c1ccncc1 | 103
